Tested on: M14 melanoma
Assay: NCI-60 one-dose screen, 48 h (100 = growth as untreated, 0 = no growth, -100 = all killed)
Conditions: 10 µM unless noted
This is part of a sample that, as a whole, favours compounds with a hit. Of some 83,000 tested, about 20% had one in any assay.
Friendly reminder: growth below 20% is criterion met, at or above is criterion not met.

Field: example entries. Status: answers known.
CCc1ccc(C(c2ccc(CC)cc2)C(Cl)(Cl)CCl)cc1    criterion not met
COc1ccc(/C=C2\CN(C(=O)CCN3CCC(=NO)CC3)C/C(=C\c3ccc(OC)cc3)C2=O)cc1    criterion met
O=C1C(Cl)=C(Cl)C(=O)c2c1nc1n2CCCC1    criterion not met

[ask] Say whether its growth is strictly beneath 20%. Entry: CSc1nc2sc3c(c2c(=O)n1-c1ccc(C(C)C)cc1)CCC(=O)C3
[reply] criterion met

[ask] Record NCc1cn2cc(Cl)sc2n1 : is its growth strictly below 20%?
[reply] criterion not met

[ask] Regarding CCN(C(=O)CN1CCN(c2cc3c(cc2F)c(=O)c(C(=O)O)cn3CC)CC1)c1nc(-c2ccccc2)cs1 , kindly confirm whether its growth is beneath 20%.
[reply] criterion met
